Entries and their Kd values follow.
target: T1, recombinant human CD3 epsilon/delta heterodimer (human, UniProt P07766 23-126; P04234 22-105); assay: BLI (Octet), mAb 5 ug/mL on FAB2G sensor, hCD3 E/D 200-50 nM
T1 construct: Recombinant heterodimer used as analyte in Octet; also called hCD3 E/D; human CD3E/D
T1 sequence (P07766 23-126, stated change not applied, chain 1 of 2): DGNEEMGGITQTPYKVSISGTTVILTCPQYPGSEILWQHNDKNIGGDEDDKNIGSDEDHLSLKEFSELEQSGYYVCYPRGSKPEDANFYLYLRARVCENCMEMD
T1 sequence (P04234 22-105, stated change not applied, chain 2 of 2): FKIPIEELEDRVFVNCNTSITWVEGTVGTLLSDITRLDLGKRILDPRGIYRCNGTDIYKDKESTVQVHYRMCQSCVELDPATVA

# binder, measurement-unit, Kd
records = [
    ("ABL-CD3-81 (antibody, V domains shown, mAb purified from hybridoma; chimeric AlivaMab IgG (human VH, CH1 and upper hinge; mouse middle hinge, CH2, CH3; human light chain)) VH: QVQLQESGPGLVKPSQTLSLTCTVSGGSISSGGYYWSWIRQHPGKGLEWIGYIYYSGSTYYNPSLKSRVTISVDTSKDQFSLKLSSVTAADTAVYYCARERKTSLPFDIWGQGTMVTVSS VL: NFMLTQPHSVSESPGKTVTISCTRSSGSIASNYVQWYQQRPGSSPTTVIYEDNQRPSGVPDRFSGSIDSSSNSASLTISGLKTEDEAYYYCQSFDSSNRVFGGGTKLTVL", "nM", 283),
    ("ABL-CD3-84 (antibody, V domains shown, mAb purified from hybridoma; chimeric AlivaMab IgG (human VH, CH1 and upper hinge; mouse middle hinge, CH2, CH3; human light chain)) VH: EVQLVESGGGLVKPGGSLRLSCAASGFTFSNFIMNWVRQAPGKGLEWVSSISGSSNYIYYADSVKGRFTISGDNAKNSLYLQMNSLRAEDTAVYYCAREKWVLLFFDYWGQGTLVTVSS VL: NFMLTQPHSVSESPGKTVTISCTRSSGSIASNYVQWYQQRPGSSPTTMIYEDTQRPSGVPDRFSGSIDSSSNSASLTISGLKTEDEADYYCQSYDSSNRVFGGGTKLTVL", "nM", 143),
    ("ABL-CD3-80 (antibody, V domains shown, mAb purified from hybridoma; chimeric AlivaMab IgG (human VH, CH1 and upper hinge; mouse middle hinge, CH2, CH3; human light chain)) VH: EVQLVESGGGLVKPGGSLRLSCAASGFTFSGYSMNWVRQAPGKGLEWVSSISSRSRYIYYADSVQGRFTISRDNSKNSLFLQMNSLRAEDTAVYYCGRDWRELLLDYWGQGTLVTVSS VL: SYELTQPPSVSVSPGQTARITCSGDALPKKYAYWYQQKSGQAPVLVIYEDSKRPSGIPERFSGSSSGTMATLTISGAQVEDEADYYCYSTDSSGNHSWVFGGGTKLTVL", "nM", 125),
    ("ABL-CD3-83 (antibody, V domains shown, mAb purified from hybridoma; chimeric AlivaMab IgG (human VH, CH1 and upper hinge; mouse middle hinge, CH2, CH3; human light chain)) VH: EVQLVESGGGLVKPGGSLRLSCAASGFTFSSYSMNWVRQAPGKGLEWVSTISRSGGYIYDADSVKGRFTISRDNAKNSLYLQMNSLRAEDTAVYYCARDFNWTFDNWGQGTLVTVSS VL: NFMLTQPHSVSESPGKTVTISCTRSSGSIASNYVQWYQQRPGSSPTTVIYEDNQRPSGVPDRFSGSIDSSSNSASLTISGLKTEDEADYYCQSSDRSNVVFGGGTKLTVL", "nM", 22),
    ("ABL-CD3-87 (antibody, V domains shown, mAb purified from hybridoma; chimeric AlivaMab IgG (human VH, CH1 and upper hinge; mouse middle hinge, CH2, CH3; human light chain)) VH: EVQLVESGGGLVKFGGSLRLSCAASGFTFSRYSMNWVRQAPGKGLEWVSSISSSSSYKYYADSVKGRFTISRDNAKNSLYLQMNSLRAEDTAVYYCAREGGNSHGMDVWGQGTTVTVSS VL: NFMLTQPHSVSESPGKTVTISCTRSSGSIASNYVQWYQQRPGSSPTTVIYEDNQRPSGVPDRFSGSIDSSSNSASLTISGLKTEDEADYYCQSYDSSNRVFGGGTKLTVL", "nM", 69),
    ("ABL-CD3-71 (antibody, V domains shown, mAb purified from hybridoma; chimeric AlivaMab IgG (human VH, CH1 and upper hinge; mouse middle hinge, CH2, CH3; human light chain)) VH: QVQLQESGPGLVKPSETLSLTCTVSGGSINSYYWSWIRQPAGKGLEWIGRIYTSGSTNYNPSLKSRVTMSVDTSKKQFSLKLSSVTAADTAVYYCARERISRLYFDYWGQGILVTVSS VL: NFMLTQPHSVSESPGKTVTISCTRSSGSIASNYVQWYQQRPGSSPTTVIYEDNQRPSGVPDRFSGSIDSSSNSASLTISGLKTEDEADYYCQSYDRSNRVFGGGTKLTVL", "nM", 58.8),
    ("ABL-CD3-73 (antibody, V domains shown, mAb purified from hybridoma; chimeric AlivaMab IgG (human VH, CH1 and upper hinge; mouse middle hinge, CH2, CH3; human light chain)) VH: EVQLVESGGGLVKPGGSLRLSCAASGFTITSYSMNWVRQAPGKGLEWVSTFSRSSTYIYYADSVKGRFTISRDNAKNSLYLQMNSLRAEDTAVYYCAREKWDLLYFDYWGQGTLVTVSS VL: NFMLTQPHSVSESPGKTVTISCTRSSGSIASNYVQWYQQRPGSSPTTVIYEDNRRPSGVPDRFSGSIDSSSNSASLTISGLKTEDEADYYCQSYDNSNRVFGGGTTLTVL", "nM", 1.26),
    ("ABL-CD3-76 (antibody, V domains shown, mAb purified from hybridoma; chimeric AlivaMab IgG (human VH, CH1 and upper hinge; mouse middle hinge, CH2, CH3; human light chain)) VH: EVQLVESGGGLVKPGGSLRLSCAASGFTFSNYYMNWVRQAPGKGLERVSSISSSSNYIYYADSVKGRFTISRDNAKNSLYLQMNSLRAEDTAVYYCARDRRELPLDYWGQGTVVTVSS VL: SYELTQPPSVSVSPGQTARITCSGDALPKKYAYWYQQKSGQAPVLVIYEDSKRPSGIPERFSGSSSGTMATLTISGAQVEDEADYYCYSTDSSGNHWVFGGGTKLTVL", "nM", 48.2),
    ("ABL-CD3-79 (antibody, V domains shown, mAb purified from hybridoma; chimeric AlivaMab IgG (human VH, CH1 and upper hinge; mouse middle hinge, CH2, CH3; human light chain)) VH: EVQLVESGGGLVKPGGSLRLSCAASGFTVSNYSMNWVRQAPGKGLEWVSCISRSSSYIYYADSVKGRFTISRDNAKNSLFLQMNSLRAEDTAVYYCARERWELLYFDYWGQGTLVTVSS VL: QTVVTQEPSFSVSPGGTVTLTCGLSSGSVSTSYYPSWYQQTPGQAPRTLIYSTNTRSSGVPDRFSGSILGNKAALTITGAQADDESDYYCVLYMGSGIWVFGGGTKLTVL", "nM", 120),
    ("ABL-CD3-74 (antibody, V domains shown, mAb purified from hybridoma; chimeric AlivaMab IgG (human VH, CH1 and upper hinge; mouse middle hinge, CH2, CH3; human light chain)) VH: EVQLVESGGGLVKPGGSLRLSCAASGFTFSSYSMKWVRQAPGKGLEWVSSISSSSSYIYYADSVKGRFTISRDNAKNSLYLQMNSLRAEDTAVYYCARDRGELTLWYWGQGTLVTVSS VL: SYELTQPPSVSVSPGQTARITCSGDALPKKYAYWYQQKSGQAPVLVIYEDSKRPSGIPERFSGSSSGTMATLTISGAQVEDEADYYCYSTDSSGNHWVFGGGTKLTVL", "nM", 55.6),
]
